Hello, the source for this data is patent US11773078B2, in case you need it.

# Measured On: Furin (108-574-Tev-Flag-His) enzyme (Homo sapiens, UniProt P09958)
# Construct: Furin (108-574-Tev-Flag-His) enzyme was expressed and purified from CHO cells; TEV cleavage site (C); FLAG (C); His (C); made in house; host or cells: CHO cells
# Sequence (P09958 108-574): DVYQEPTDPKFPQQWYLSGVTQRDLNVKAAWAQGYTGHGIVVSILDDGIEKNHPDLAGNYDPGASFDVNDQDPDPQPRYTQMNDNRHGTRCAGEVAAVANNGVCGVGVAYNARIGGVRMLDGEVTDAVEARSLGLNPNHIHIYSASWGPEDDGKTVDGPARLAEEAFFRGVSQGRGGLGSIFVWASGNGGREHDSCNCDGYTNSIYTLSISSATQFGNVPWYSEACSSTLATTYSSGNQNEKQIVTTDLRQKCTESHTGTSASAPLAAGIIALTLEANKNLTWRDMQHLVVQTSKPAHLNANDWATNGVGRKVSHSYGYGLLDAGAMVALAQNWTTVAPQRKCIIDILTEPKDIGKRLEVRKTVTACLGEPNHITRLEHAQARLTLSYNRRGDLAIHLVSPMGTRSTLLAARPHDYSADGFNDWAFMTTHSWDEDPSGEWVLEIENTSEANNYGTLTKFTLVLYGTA
# Protocol Summary: Furin enzyme assay
# Assay type: biochemical
Structures can show the parent of a compound that is named as a salt.
Decide using furin enzyme pIC50 alone. Strictly below 9: Yes. Equal to or above 9: No.

Exercise: Lab note: furin enzyme pIC50 threshold 9. Does this molecule come in strictly under it? NC(=O)OCCN1CCN(Cc2cc(Oc3cnc(N4CCN(CCC(=O)O)CC4)nc3)nc(-c3cc(Cl)cc(Cl)c3)c2)CC1 [Example 54, hydrochloride]
Key: Yes

Exercise: CNCc1cc(Oc2ccc(N3CCN(C)CC3)nc2)cc(-c2cc(Cl)cc(Cl)c2)c1 [Example 104] , same question.
Key: Yes

Exercise: Field entry: CC(CC1CCN(Cc2cc(Oc3cnc(N4CCNCC4)nc3)nc(-c3cc(Cl)cc(Cl)c3)c2)CC1)C(=O)O (stereo not shown) [Example 269]
Key: Yes

Exercise: Can you handle CNCc1cc(Oc2ccc(N3C[C@@H]4C[C@H]3CN4)nc2)cc(-c2cc(Cl)cc(Cl)c2)c1 [Example 202] next?
Key: Yes

Exercise: Also need CC(=O)NCC1CCN(Cc2cc(Oc3ccc(N4CCN(CC5(CO)CC5)CC4)nc3)nc(-c3cc(Cl)cc(Cl)c3)c2)CC1 [Example 34] , thanks.
Key: No

====

# Measured On: furin (endogenous protease) in U20S cells (Homo sapiens)
# Construct: the endogenous protease cleaves GFP; endogenous in cells; host or cells: U2OS cells transduced with a BacMam reporter
# Sequence (P09958 108-794): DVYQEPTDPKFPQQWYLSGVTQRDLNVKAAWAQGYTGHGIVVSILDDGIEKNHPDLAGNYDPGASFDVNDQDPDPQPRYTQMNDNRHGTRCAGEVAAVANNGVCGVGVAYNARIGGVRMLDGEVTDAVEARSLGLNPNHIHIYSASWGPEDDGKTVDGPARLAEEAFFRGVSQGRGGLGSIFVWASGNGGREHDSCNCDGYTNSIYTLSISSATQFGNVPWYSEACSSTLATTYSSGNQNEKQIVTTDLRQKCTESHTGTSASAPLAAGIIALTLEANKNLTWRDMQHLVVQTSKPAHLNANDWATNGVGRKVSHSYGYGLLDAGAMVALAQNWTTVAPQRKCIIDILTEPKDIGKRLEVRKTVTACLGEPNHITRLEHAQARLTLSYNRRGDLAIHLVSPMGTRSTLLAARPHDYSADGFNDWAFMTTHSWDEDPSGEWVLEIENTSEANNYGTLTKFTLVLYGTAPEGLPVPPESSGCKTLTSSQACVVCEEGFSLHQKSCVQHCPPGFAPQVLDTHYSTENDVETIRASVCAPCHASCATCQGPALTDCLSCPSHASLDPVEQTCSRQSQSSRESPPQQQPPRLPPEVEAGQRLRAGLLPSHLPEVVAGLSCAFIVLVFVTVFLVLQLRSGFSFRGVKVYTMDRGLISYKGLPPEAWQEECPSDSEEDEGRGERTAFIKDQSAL
# Protocol Summary: Furin cell-based assay (image-based, Golgi-targeted GFP with BMP10 furin/PCSK cleavage site);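 also: Read-out is mean GFP fluorescence of Golgi puncta per cell by high-content imaging, retained when furin inhibited, over an eleven-point 0.00017–10 µM series, four-parameter fit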
# Details: 24-hour incubation, read-out: furin golgi cell pXC50 (converted)
Where a name gives a salt, the structure may show the parent alone.
Hi there, I'd appreciate the recorded EC50 for every entry that follows.
Field format: number, assumed nM, no unit text.

Exercise: Recorded EC50 for CNC(=O)NCC1CCN(Cc2cc(Oc3cnc(N4CCN(CCC(N)=O)CC4)nc3)nc(-c3cc(Cl)cc(Cl)c3)c2)CC1 [Example 261] with furin (endogenous protease) in U20S cells (Homo sapiens), please?
Key: 10

Exercise: Repeat with CNCc1cc(Oc2ccc(N3CC4CNCC4C3)nc2)cc(-c2cc(Cl)cc(Cl)c2)c1 (centres unmarked) [Example 201]
Key: 20

Exercise: Ok, now CN1CCN(c2ccc(Oc3cc(CN4CCC(CC(=O)O)CC4)cc(-c4cc(Cl)cc(Cl)c4)n3)cc2)CC1 [Example 150]
Key: 63.1

Exercise: What do you have for CCC(CCN1CCN(c2ccc(Oc3cc(CN4CCC(CNC(C)=O)CC4)cc(-c4cc(Cl)cc(Cl)c4)n3)cn2)CC1)C(=O)O (centres unmarked) [Example 188] ?
Key: 12.6

Exercise: // repeat for CNC1CCN(c2ccc(Oc3cc(CNCCOC)cc(-c4cc(Cl)cc(Cl)c4)c3)cn2)CC1 [Example 97] and report
Key: 25.1

Exercise: Same again, this time with CNC(=O)NCC1CCN(Cc2cc(Oc3cnc(N4CCN(CC(C)C(N)=O)CC4)nc3)nc(-c3cc(Cl)cc(Cl)c3)c2)CC1 (centres unmarked) [Example 291]
Key: 7.94

Exercise: Can you handle CNC(=O)NCC1CCN(Cc2cc(Oc3ccc(N4CCN(CCC(=O)O)CC4)nc3)nc(-c3cc(Cl)cc(Cl)c3)c2)CC1 [Example 41] next?
Key: 25.1

Exercise: Request: CC(=O)NCC1CCN(Cc2cc(Oc3ccc(N4CCN(CCC(=O)O)[C@@H](C)C4)nc3)nc(-c3cc(Cl)cc(Cl)c3)c2)CC1 [Example 186]
Key: 39.8

Exercise: Queued: CCN1CCCN(c2ncc(Oc3cc(CN4CCC(CC(=O)O)CC4)cc(-c4cc(Cl)cc(Cl)c4)n3)cn2)CC1 [Example 230]
Key: 10

Exercise: Likewise for CNC(=O)NCC1CCN(Cc2cc(Oc3ccc(N4CCN(CCO)CC4)nc3)nc(-c3cc(Cl)cc(Cl)c3)c2)CC1 [Example 40] ?
Key: 10

Exercise: Lookup CC(=O)NCC1CCN(Cc2cc(Oc3cnc(N4CCN(CCB(O)O)CC4)nc3)nc(-c3cc(Cl)cc(Cl)c3)c2)CC1 [Example 319, hydrochloride]
Key: 1

Exercise: Same question for CC(=O)NCC1CCN(Cc2cc(Oc3cnc(N4CCC(N)CC4)nc3)nc(-c3cc(Cl)cc(Cl)c3)c2)CC1 [Example 119] please.
Key: 25.1

Exercise: Let us now turn to CC(=O)NCC1CCN(Cc2cc(Oc3ccc(N4CCN(CCC(=O)O)CC4)nn3)nc(-c3cc(Cl)cc(Cl)c3)c2)CC1 [Example 169]
Key: 1260
